molecular target: Protein kinase C alpha type (Homo sapiens); test: Inhibition of PKCalpha at 10 uM by HTRF assay relative to control
Parameter: inhibition
Note: state the figure and append the unit.

Task item: Look up and state reported inhibition for Cc1cccc(Oc2ccnc(N3CCN(CC(=O)Nc4cccc5c4CCCC5)CC3)n2)c1
Reply: 3%

Task item: Hello, please tell me recorded inhibition for this one: Cc1cccc(Nc2ncnc3c2CN(C(=O)c2ccc(N(C)C)c4ccccc24)CC3)c1
Reply: 0%

Task item: Find the measured inhibition of CC(=O)N1CCN(C(=O)c2cccc(Nc3cc(N(C)c4cccc(C)c4)ncn3)c2)CC1 and report it.
Reply: 6%

----------
biological target: RAC-alpha serine/threonine-protein kinase (Homo sapiens) (UniProt P31749); assay: Inhibition of AKT1/PKBalpha at 10 uM by HTRF assay relative to control
Sequence (P31749 whole entry): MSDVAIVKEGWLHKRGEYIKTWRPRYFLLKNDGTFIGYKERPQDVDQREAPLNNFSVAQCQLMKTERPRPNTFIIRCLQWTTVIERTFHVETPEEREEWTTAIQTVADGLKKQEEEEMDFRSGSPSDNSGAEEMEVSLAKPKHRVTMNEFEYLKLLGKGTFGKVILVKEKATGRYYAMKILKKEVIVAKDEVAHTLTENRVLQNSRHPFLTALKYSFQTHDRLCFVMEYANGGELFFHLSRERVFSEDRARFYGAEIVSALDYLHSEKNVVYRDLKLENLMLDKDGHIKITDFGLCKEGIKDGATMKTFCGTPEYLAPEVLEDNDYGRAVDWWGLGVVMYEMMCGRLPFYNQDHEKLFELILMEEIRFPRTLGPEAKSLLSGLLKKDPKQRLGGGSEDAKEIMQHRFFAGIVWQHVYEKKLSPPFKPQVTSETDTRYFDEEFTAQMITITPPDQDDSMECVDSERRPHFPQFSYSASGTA
Parameter: inhibition

Cc1cccc(N(C)c2cc(N3CCN(C(=O)Cc4c[nH]c5ccccc45)CC3)ncn2)c1 :: 0%
Cc1cccc(Nc2nccc(Nc3cccc(C(=O)N(C)CCc4ccccn4)c3)n2)c1 :: 0%
Cc1cccc(N(C)c2cc(Nc3cccc(C(=O)NCCCn4ccnc4)c3)ncn2)c1 :: 0%
COC[C@@H]1CCCN1C(=O)C1CCCN1c1cc(Nc2cccc(Br)c2)ncn1 (some centres undefined) :: 0%
Cc1cccc(Oc2ccnc(N3CCC[C@H]3C(=O)NCCCn3ccnc3)n2)c1 :: 0%
CN(C)c1ccc(C(=O)N2CCN(c3ncnc4c3CN(Cc3ccccc3)CC4)CC2)c2ccccc12 :: 4%
COc1ccc(-c2noc(CN3CCN(c4cc(Nc5cccc(O)c5)ncn4)CC3)n2)cc1 :: 0%
CC(=O)N1CCN(C(=O)c2cccc(Nc3cc(N(C)c4cccc(C)c4)ncn3)c2)CC1 :: 0%
CN(C)CC(C)(C)CNC(=O)C1CCN(c2cc(N3CCOCC3)nc(N)n2)CC1 :: 0%
Nc1nc(Nc2ccc(C(=O)NCCc3ccncc3)cc2)cc(N2CCOCC2)n1 :: 2%

Task item: With RAC-alpha serine/threonine-protein kinase (Homo sapiens) (UniProt P31749) as the test system, provide measured inhibition for this compound: O=C(NC[C@@H]1CCCO1)c1cccc(Nc2nccc(Nc3ccc4ncsc4c3)n2)c1
Reply: 0%

Task item: Check RAC-alpha serine/threonine-protein kinase (Homo sapiens) (UniProt P31749) data and give inhibition for CC(=O)CCCCC(=O)N1CCN(c2nccc(Oc3cccc(C)c3)n2)CC1 .
Reply: 0%

Task item: Fetch value of inhibition on RAC-alpha serine/threonine-protein kinase (Homo sapiens) (UniProt P31749) for Cc1cccc(N(C)c2cc(Nc3ccc(CC(=O)Nc4ccc5ncsc5c4)cc3)ncn2)c1 .
Reply: 0%

Task item: Please indicate recorded inhibition of Cc1cccc(N(C)c2cc(Nc3cccc(C(=O)N(C)CCc4ccccn4)c3)ncn2)c1 measured with RAC-alpha serine/threonine-protein kinase (Homo sapiens) (UniProt P31749).
Reply: 2%

Origin of measurements: ChEMBL document CHEMBL1150387
